Assay: Intracellular fraction of unbound compound (fu,cell), dialysis of cell homogenate
Assay type: in vitro ADME
Conditions: human; OATP1B1-transfected HEK293 cell homogenate; geometrical mean ± S.E.M.; read-out: Cell binding (fu,cell)
Method: For intracellular fraction of unbound compound experiments, cell lines or primary cells were suspended to a concentration of 10 × 10^6 cells/ml in Hank’s balanced salt solution (HBSS). […] Binding to cell homogenates at steady-state was measured using dialysis as previously described. […] Compounds in the supernatant were analyzed by ultra-performance liquid chromatography coupled to tandem mass spectrometry (UPLC-MS/MS), as described below. […]
metric: fraction unbound at 4 h

molecule	fraction unbound at 4 h
COc1ccc2c(c1)c(CC(=O)O)c(C)n2C(=O)c1ccc(Cl)cc1	0.065
COCc1c(C(C)C)nc(C(C)C)c(/C=C/[C@@H](O)C[C@@H](O)CC(=O)O)c1-c1ccc(F)cc1	0.027
Cc1cccc(C)c1OCC(=O)N[C@@H](Cc1ccccc1)[C@@H](O)C[C@H](Cc1ccccc1)NC(=O)[C@H](C(C)C)N1CCCNC1=O	0.0077
CCOC(=O)[C@H](CCc1ccccc1)N[C@@H](C)C(=O)N1CCC[C@H]1C(=O)O	0.19

a: CC(C)NCC(O)COc1cccc2ccccc12 (centres unmarked)
b: CC(C)(C)NC(=O)[C@@H]1C[C@@H]2CCCC[C@@H]2CN1C[C@@H](O)[C@H](Cc1ccccc1)NC(=O)[C@H](CC(N)=O)NC(=O)c1ccc2ccccc2n1
Query string: Between item a and item b , which reported fraction unbound at 4 h is smaller? Refer to your chosen item by its label in the answer.
Result string: b
(b: 0.0027, a: 0.032)

I: COc1ccc([C@@H]2Sc3ccccc3N(CCN(C)C)C(=O)[C@@H]2OC(C)=O)cc1
II: Cc1c(O)cccc1C(=O)N[C@@H](CSc1ccccc1)[C@H](O)CN1C[C@H]2CCCC[C@H]2C[C@H]1C(=O)NC(C)(C)C
III: CCC(C)(C)C(=O)O[C@H]1C[C@@H](C)C=C2C=C[C@H](C)[C@H](CC[C@@H](O)C[C@@H](O)CC(=O)O)[C@H]21
Query string: Ranking field: fraction unbound at 4 h; order: falling. Form field (ranking): labels in requested order.
Result string: I, III, II

====

tested on: OATP1B1; assay: Intracellular compound accumulation (Kp) and intracellular bioavailability (Fic); details: human, OATP1B1-transfected HEK293 cells
metric: Kp at 45 min, 0.1 μM

Please review the following examples before continuing.
molecule	Kp at 45 min, 0.1 μM
COCCc1ccc(OCC(O)CNC(C)C)cc1 (centres unmarked) [Metoprolol]	9.6
COc1ccc(CCN2CCC(Nc3nc4ccccc4n3Cc3ccc(F)cc3)CC2)cc1 [Astemizole]	738
CCOc1cc(CC(=O)N[C@@H](CC(C)C)c2ccccc2N2CCCCC2)ccc1C(=O)O [Repaglinide]	73
Cc1c(O)cccc1C(=O)N[C@@H](CSc1ccccc1)[C@H](O)CN1C[C@H]2CCCC[C@H]2C[C@H]1C(=O)NC(C)(C)C [Nelfinavir]	652
CC(C)NCC(O)COc1cccc2ccccc12 (centres unmarked) [Propranolol]	126

I: NC(=O)N1c2ccccc2C=Cc2ccccc21 [Carbamazepine]
II: O=C(O)Cc1ccccc1Nc1c(Cl)cccc1Cl [Diclofenac]
Query string: Pick one: I or II . Which has the bigger Kp at 45 min, 0.1 μM number? Please indicate the selected item by its label.
Result string: II
(II: 32, I: 5.4)

I: CC(C)(C)NC(=O)[C@@H]1C[C@@H]2CCCC[C@@H]2CN1C[C@@H](O)[C@H](Cc1ccccc1)NC(=O)[C@H](CC(N)=O)NC(=O)c1ccc2ccccc2n1 [Saquinavir]
II: O=C(O)C[C@H](O)C[C@H](O)/C=C/c1c(C2CC2)nc2ccccc2c1-c1ccc(F)cc1 [Pitavastatin]
III: CCOC(=O)[C@H](CCc1ccccc1)N[C@@H](C)C(=O)N1CCC[C@H]1C(=O)O [Enalapril]
IV: COc1ccc2c(c1)c(CC(=O)O)c(C)n2C(=O)c1ccc(Cl)cc1 [Indomethacin]
Query string: Please rank these molecules by Kp at 45 min, 0.1 μM in descending order. Lab note: record answer as labels in requested order.
Result string: I, II, IV, III
(I: 302, II: 35, IV: 14, III: 0.86)

I: CCC(C)(C)C(=O)O[C@H]1C[C@@H](C)C=C2C=C[C@H](C)[C@H](CC[C@@H](O)C[C@@H](O)CC(=O)O)[C@H]21 [Simvastatin acid]
II: Cc1nccn1CC1CCc2c(c3ccccc3n2C)C1=O (centres unmarked) [Ondansetron]
III: CC(C)n1c(/C=C/C(O)CC(O)CC(=O)O)c(-c2ccc(F)cc2)c2ccccc21 (centres unmarked) [Fluvastatin]
Query string: # desc sort on Kp at 45 min, 0.1 μM across 3 molecules The reply should contain the labels ordered as requested.
Result string: III, I, II
(III: 94, I: 64, II: 20)

P: CN(CCOc1ccc(CC2SC(=O)NC2=O)cc1)c1ccccn1 (centres unmarked) [Rosiglitazone]
Q: CCOc1nc2cccc(C(=O)O)c2n1Cc1ccc(-c2ccccc2-c2nnn[nH]2)cc1 [Candesartan]
Query string: Could you kindly indicate whether P or Q has the higher Kp at 45 min, 0.1 μM value? The response must carry the label of the picked entry.
Result string: P

====

test system: P-gp; experiment: Intracellular compound accumulation (Kp) and intracellular bioavailability (Fic); settings: dog, P-gp-transfected MDCK cells
metric: Kp at 45 min, 0.5 μM

compound	test.result
CCOc1cc(CC(=O)N[C@@H](CC(C)C)c2ccccc2N2CCCCC2)ccc1C(=O)O [Repaglinide]	32
Cc1nccn1CC1CCc2c(c3ccccc3n2C)C1=O (stereo not shown)	75
CC(C)NCC(O)COc1cccc2ccccc12 (stereo not shown)	314

1: O=C(O)Cc1ccccc1Nc1c(Cl)cccc1Cl
2: CC(C)(C)NC(=O)[C@@H]1C[C@@H]2CCCC[C@@H]2CN1C[C@@H](O)[C@H](Cc1ccccc1)NC(=O)[C@H](CC(N)=O)NC(=O)c1ccc2ccccc2n1
Query string: Hi! Which is lower in terms of Kp at 45 min, 0.5 μM, the first one 1 or the second one 2 ? // caller expects the label of the chosen entry
Result string: 1

I: CN(CCOc1ccc(CC2SC(=O)NC2=O)cc1)c1ccccn1 (stereo not shown)
II: O=C(O)C[C@H](O)C[C@H](O)/C=C/c1c(C2CC2)nc2ccccc2c1-c1ccc(F)cc1
III: CCOC(=O)[C@H](CCc1ccccc1)N[C@@H](C)C(=O)N1CCC[C@H]1C(=O)O
IV: Cc1c(O)cccc1C(=O)N[C@@H](CSc1ccccc1)[C@H](O)CN1C[C@H]2CCCC[C@H]2C[C@H]1C(=O)NC(C)(C)C
V: COc1ccc2c(c1)c(CC(=O)O)c(C)n2C(=O)c1ccc(Cl)cc1
Query string: Output the entries ranked by Kp at 45 min, 0.5 μM from maximum down to minimum. Answer by writing out the labels in the requested order.
Result string: IV, I, V, II, III
(IV: 53, I: 30, V: 18, II: 11, III: 2)

P: CCC(C)(C)C(=O)O[C@H]1C[C@@H](C)C=C2C=C[C@H](C)[C@H](CC[C@@H](O)C[C@@H](O)CC(=O)O)[C@H]21
Q: CC(C)n1c(/C=C/C(O)CC(O)CC(=O)O)c(-c2ccc(F)cc2)c2ccccc21 (stereo not shown)
R: NC(=O)N1c2ccccc2C=Cc2ccccc21 [Carbamazepine]
S: CCOc1nc2cccc(C(=O)O)c2n1Cc1ccc(-c2ccccc2-c2nnn[nH]2)cc1
Query string: Rank entries according to their Kp at 45 min, 0.5 μM, from the largest number down. Hello, could you send the labels back in the order asked? Thank you.
Result string: P, Q, R, S

====

Listed next: entries and their corresponding fraction unbound.
assay: in vitro; settings: dog
Note: the reply should be a number with no unit written.

compound	fraction unbound
COc1ccc(CCN2CCC(Nc3nc4ccccc4n3Cc3ccc(F)cc3)CC2)cc1 [Astemizole]	1e-05

Query string: Quote fraction unbound reported for CN(C)C(=O)C(CCN1CCC(O)(c2ccc(Cl)cc2)CC1)(c1ccccc1)c1ccccc1 [Loperamide] please.
Result string: 0.00051

====

experiment: Intracellular fraction of unbound compound (fu,cell), dialysis of cell homogenate; format: in vitro ADME; conditions: human; OATP1B1-transfected HEK293 cell homogenate; geometrical mean ± S.E.M.; read-out: Cell binding (fu,cell)
metric: fraction unbound at 4 h

compound	metric	test.result
Cc1nccn1CC1CCc2c(c3ccccc3n2C)C1=O (stereo not drawn) [Ondansetron]	fraction unbound at 4 h	0.11
O=C(O)Cc1ccccc1Nc1c(Cl)cccc1Cl [Diclofenac]	fraction unbound at 4 h	0.082
CC(C)n1c(/C=C/C(O)CC(O)CC(=O)O)c(-c2ccc(F)cc2)c2ccccc21 (stereo not drawn) [Fluvastatin]	fraction unbound at 4 h	0.015
COCCc1ccc(OCC(O)CNC(C)C)cc1 (stereo not drawn) [Metoprolol]	fraction unbound at 4 h	0.22
CCOc1nc2cccc(C(=O)O)c2n1Cc1ccc(-c2ccccc2-c2nnn[nH]2)cc1 [Candesartan]	fraction unbound at 4 h	0.094
COc1ccc(CCN2CCC(Nc3nc4ccccc4n3Cc3ccc(F)cc3)CC2)cc1 [Astemizole]	fraction unbound at 4 h	0.0013
O=C(O)C[C@H](O)C[C@H](O)/C=C/c1c(C2CC2)nc2ccccc2c1-c1ccc(F)cc1 [Pitavastatin]	fraction unbound at 4 h	0.025

1: CCOc1cc(CC(=O)N[C@@H](CC(C)C)c2ccccc2N2CCCCC2)ccc1C(=O)O [Repaglinide]
2: CN(CCOc1ccc(CC2SC(=O)NC2=O)cc1)c1ccccn1 (stereo not drawn) [Rosiglitazone]
Query string: Given the two records 1 and 2 , choose the one whose fraction unbound at 4 h value is lower. In your reply, give the label of the chosen option.
Result string: 1
(1: 0.019, 2: 0.044)

Measured values drawn from paper PMC5320532 for this set.
